TARGET: FTD patient brain-derived TDP-43 aggregates (Homo sapiens, UniProt Q13148)
Construct: A sample of brain tissue (frontal or temporal cortex) was homogenized
Sequence (Q13148 whole entry): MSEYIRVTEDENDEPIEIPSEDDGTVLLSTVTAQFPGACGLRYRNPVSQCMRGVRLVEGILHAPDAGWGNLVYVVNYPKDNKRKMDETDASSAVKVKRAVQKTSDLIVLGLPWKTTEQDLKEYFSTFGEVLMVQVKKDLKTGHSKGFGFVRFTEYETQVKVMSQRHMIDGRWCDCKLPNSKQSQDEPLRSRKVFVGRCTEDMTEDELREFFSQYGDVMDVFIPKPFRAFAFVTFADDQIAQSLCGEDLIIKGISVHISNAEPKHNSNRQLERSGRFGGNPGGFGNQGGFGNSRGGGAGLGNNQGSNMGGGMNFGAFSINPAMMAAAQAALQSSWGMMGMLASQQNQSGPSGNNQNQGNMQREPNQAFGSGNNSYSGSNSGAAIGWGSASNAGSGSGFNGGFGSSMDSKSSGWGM
ASSAY_EXPLANATION: Micro-radiobinding competition assay against [3H]-reference ligand
APPLIED_CONDITIONS: 0.24 nM to 2 μM; tritiated reference ligand at 25 nM
Consider the cut-off 90 nM. If the recorded Ki is strictly smaller, the label is satisfied; if not, the label is not satisfied.

INPUT_SMILES	QUALITATIVE_LABEL
O=C(Nc1ccncc1)c1cnc(-c2cnc(N3CC[C@@H](F)C3)cn2)s1	satisfied
O=C(Nc1cnsc1)c1cnc(-c2ccc(N3CC[C@@H](F)C3)nc2)s1	not satisfied
O=C(Nc1ccc(F)nc1)c1cnc(-c2ccc(N3CC[C@@H](F)C3)cc2)s1	satisfied
O=C(Nc1ccncc1)c1cnc(-c2cnc(N3CC[C@H](F)C3)nc2)s1	satisfied
O=C(Nc1cnc(F)cn1)c1cnc(-c2ccc(N3CC[C@@H](F)C3)nc2)s1	not satisfied
O=C(Nc1ccc(F)nc1)c1cnc(-c2ccc(N3CC[C@@H](F)C3)nc2)s1	not satisfied
Nc1cc(NC(=O)c2cnc(-c3ccc(N4CC[C@H](F)C4)nc3)s2)ccc1F	satisfied
